Target: porcine plasma angiotensin-converting enzyme (Sus scrofa, UniProt F1RRW5)
Construct: procine plasma angiotensin-converting enzyme
Sequence (F1RRW5 34-1309): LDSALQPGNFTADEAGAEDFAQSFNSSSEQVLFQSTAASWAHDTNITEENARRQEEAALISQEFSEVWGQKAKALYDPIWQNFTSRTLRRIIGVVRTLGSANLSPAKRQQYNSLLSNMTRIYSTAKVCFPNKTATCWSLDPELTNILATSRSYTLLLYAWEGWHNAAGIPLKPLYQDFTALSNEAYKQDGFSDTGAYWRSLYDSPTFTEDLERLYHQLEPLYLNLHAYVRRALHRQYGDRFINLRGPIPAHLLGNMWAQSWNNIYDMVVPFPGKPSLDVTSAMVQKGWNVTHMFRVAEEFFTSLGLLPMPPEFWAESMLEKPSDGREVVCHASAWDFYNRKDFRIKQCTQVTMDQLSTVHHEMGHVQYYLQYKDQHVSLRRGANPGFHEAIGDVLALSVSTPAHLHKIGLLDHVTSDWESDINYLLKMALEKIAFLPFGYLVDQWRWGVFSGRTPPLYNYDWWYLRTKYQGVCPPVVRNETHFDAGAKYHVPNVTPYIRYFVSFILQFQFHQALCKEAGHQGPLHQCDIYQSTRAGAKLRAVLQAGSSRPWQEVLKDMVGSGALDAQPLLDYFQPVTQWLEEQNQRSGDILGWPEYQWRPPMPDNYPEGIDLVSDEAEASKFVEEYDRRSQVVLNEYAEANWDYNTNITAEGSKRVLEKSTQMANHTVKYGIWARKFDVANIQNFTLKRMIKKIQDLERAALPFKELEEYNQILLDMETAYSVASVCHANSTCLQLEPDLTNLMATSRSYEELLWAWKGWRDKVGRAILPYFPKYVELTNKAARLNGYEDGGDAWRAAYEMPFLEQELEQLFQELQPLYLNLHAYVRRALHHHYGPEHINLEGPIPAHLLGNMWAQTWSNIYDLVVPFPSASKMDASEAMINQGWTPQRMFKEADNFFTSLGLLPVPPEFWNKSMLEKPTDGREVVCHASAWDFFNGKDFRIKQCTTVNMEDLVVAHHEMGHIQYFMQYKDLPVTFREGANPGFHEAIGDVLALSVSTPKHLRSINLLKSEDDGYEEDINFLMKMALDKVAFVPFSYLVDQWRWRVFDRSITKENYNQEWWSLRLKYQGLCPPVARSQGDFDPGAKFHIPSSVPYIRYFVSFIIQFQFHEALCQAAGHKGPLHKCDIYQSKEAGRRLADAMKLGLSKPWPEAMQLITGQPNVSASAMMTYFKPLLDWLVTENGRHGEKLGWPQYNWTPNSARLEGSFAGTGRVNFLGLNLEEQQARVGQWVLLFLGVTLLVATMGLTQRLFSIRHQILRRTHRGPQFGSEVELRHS
Assay: Angiotensin Converting Enzyme Inhibition Assay
Conditions: sodium phosphate buffer, pH 7.6; substrate 1-2 mM; inhibitor 1 nM-10 mM
pIC50: −log10 of the molar value.
measured metric: pIC50

[P] CCCCCCCC(=O)NC(Cc1ccccc1)C(=O)CCC(=O)N1CCC[C@H]1C(=O)O (some centres unmarked)
[Q] CCCCOC(=O)NC(Cc1ccccc1)C(=O)CCC(=O)N1CCC[C@H]1C(=O)O (some centres unmarked)
Identify the item whose pIC50 is the smaller number: P or Q Mark your selection by writing its label.
P
(P: 6.19, Q: 6.68)

[1] O=C(NC(Cc1ccccc1)C(=O)CCC(=O)N1CCC[C@H]1C(=O)O)OCc1ccccc1 (some centres unmarked)
[2] O=C(NC(Cc1cccnc1)C(=O)CCC(=O)N1CCC[C@H]1C(=O)O)c1ccccc1 (some centres unmarked)
Field: lower pIC50 | Options: 1 / 2 Write the label of whichever entry you select.
1

[P] O=C(NC(Cc1ccccc1)C(=O)CCC(=O)N1CCC[C@H]1C(=O)O)c1ccncc1 (some centres unmarked)
[Q] O=C(NC(Cc1ccc(OCc2ccccc2)cc1)C(=O)CCC(=O)N1CCC[C@H]1C(=O)O)c1ccccc1 (some centres unmarked)
// select label with min value of measured pIC50 from [ P , Q ] Answer by stating the label of the chosen item.
P
(P: 7.70, Q: 8.00)

[a] COc1ccc(CC(NC(=O)c2ccccc2)C(=O)CCC(=O)N2CCC[C@H]2C(=O)O)cc1OC (some centres unmarked)
[b] Cc1ccccc1C(=O)NC(Cc1ccccc1)C(=O)CCC(=O)N1CCC[C@H]1C(=O)O (some centres unmarked)
Lowest pIC50? choose a or b Identify your pick by its label.
b
(b: 7.34, a: 8.85)

###

Biological target: porcine plasma angiotensin-converting enzyme (Sus scrofa)
Construct: procine plasma angiotensin-converting enzyme
Experiment: Angiotensin Converting Enzyme Inhibition Assay
Conditions: sodium phosphate buffer, pH 7.6; substrate 1-2 mM; inhibitor 1 nM-10 mM
Procedure: Said assay is described in the literature as follows: B. S. Tsai, M. J. Peach, M. C. The Angiotensin Converting Enzyme Inhibition Assay represents a test procedure in which various compounds are tested for their ability to inhibit the conversion of the decapeptide angiotensin I or the tripeptide hippuryl-histidyl-leucine to its cleavage product, the dipeptide histidyl-leucine. This dipeptide is detected via its fluorescent condensation product with o-phthaladehyde. […]
pIC50: −log10 of the molar value.
measured metric: pIC50

compound | measured metric | value measured
CCCCCC(=O)NC(Cc1ccccc1)C(=O)CCC(=O)N1CCC[C@H]1C(=O)O (some centres unmarked) [Example XIX] | pIC50 | 7.33
O=C(CCC(=O)N1CCC[C@H]1C(=O)O)C(Cc1ccccc1)NC(=O)C1CCCO1 (some centres unmarked) [VI] | pIC50 | 7.70

[A] CCCCOC(=O)NC(Cc1ccccc1)C(=O)CC(C)C(=O)N1CCC[C@H]1C(=O)O (some centres unmarked) [Example XVII]
[B] CC(=O)NC(Cc1ccccc1)C(=O)CCC(=O)N1CCC[C@H]1C(=O)O (some centres unmarked) [XVIII]
[C] CCCCCCCCCC(=O)NC(Cc1ccccc1)C(=O)CCC(=O)N1CCC[C@H]1C(=O)O (some centres unmarked) [XXI]
[D] O=C(NC(Cc1ccccc1)C(=O)CCC(=O)N1CCC[C@H]1C(=O)O)c1ccco1 (some centres unmarked) [Example V]
Put the items in sequence by pIC50, from largest down. Please, when replying, give the labels in the order that was requested.
D, A, B, C
(D: 8.85, A: 7.48, B: 6.48, C: 5.19)

[P] O=C(NC(Cc1ccc(O)cc1)C(=O)CCC(=O)N1CCC[C@H]1C(=O)O)c1ccccc1 (some centres unmarked) [Example X]
[Q] CC(C)C(CC(=O)C(Cc1ccccc1)NC(=O)c1ccccc1)C(=O)N1CCC[C@H]1C(=O)O (some centres unmarked) [XIV]
Lab note: record which item had the higher pIC50, P or Q . Write down the label attached to your selection.
P
(P: 8.33, Q: 6.64)
